Protocol Summary: in vitro
Study Conditions: human, HepG2-A16-CD81EGFP cells, uninfected
In this section we review reported viability at 48 h, 1 µM values for a set of molecules.
Give the number first and the unit second.

For orientation, consider the following solved cases.
{"Smiles Representation": "COC(=O)c1ccc2[nH]c(C[C@@H]3C[C@@H](C(C)C)[C@H](CNC4CCCCC4)C=C3C)nc2c1", "Meas Value": "99.2%"}
{"Smiles Representation": "COc1ccc(C2=Nn3c([n+](C)c4ccccc43)SC2)cc1", "Meas Value": "83%"}
{"Smiles Representation": "O=C(O)c1ccc(N/N=C/c2cn(-c3ccccc3)nc2-c2cccs2)cc1", "Meas Value": "112%"}

Q: Item under review: COc1ccc(-c2ccc3ncc(Nc4ccc(C(N)=O)cc4)n3n2)cc1OC . Reported viability at 48 h, 1 µM?
Ans: 100%

Q: Can you look up the measured viability at 48 h, 1 µM of O=C(Nc1ccc(N2CCN(c3ncccc3C(F)(F)F)CC2)nc1)c1cccs1 for me?
Ans: 105%

Q: viability at 48 h, 1 µM for COc1ccc(CNCc2cc3c(C(C)(C)C)nn(-c4ccccc4)c3[nH]c2=O)cc1 ?
Ans: 103%

Q: Could you tell me which viability at 48 h, 1 µM is on file for Cc1ccc(CN2COc3cc(C)c4c(oc(=O)c5ccccc54)c3C2)cc1 ?
Ans: 101%

Q: Value lookup for viability at 48 h, 1 µM; key = Br.CCOC(=O)c1c(CSC(=N)N)n(-c2ccc(Br)cc2)c2cc(Br)c(OC(C)=O)cc12
Ans: 105%

---

System: Plasmodium falciparum Dd2 asexual blood stage parasites
Protocol Summary: microbe, parasite or virus in culture
Parameters: species or system Plasmodium falciparum Dd2 in human erythrocytes; single determination (one 11-point concentration-response curve)
Study Conditions: Plasmodium falciparum, DD2, Erythrocyte, 72 h; read-out: AC50
Kindly apply the following: true (1) if AC50 is less than 5 µM, false (0) in every other case.

{"Compound": "CCCCC(=O)NC(c1cccc([N+](=O)[O-])c1)c1c(OC(C)=O)ccc2ccccc12 (centres unmarked)", "Subject Of Test": "Plasmodium falciparum Dd2 asexual blood stage parasites", "Label": "true (1)"}
{"Compound": "CCc1nc(NC(=O)C2c3ccccc3C(=O)N(CCOC)C23CCCC3)sc1C (centres unmarked)", "Subject Of Test": "Plasmodium falciparum Dd2 asexual blood stage parasites", "Label": "false (0)"}
{"Compound": "CC(C)Nc1nccc(C2(c3ccccc3Cl)CCNCC2)n1", "Subject Of Test": "Plasmodium falciparum Dd2 asexual blood stage parasites", "Label": "false (0)"}
{"Compound": "O=C(Nc1ccc(N2CCCCC2)c(Cl)c1)c1nnc[nH]1", "Subject Of Test": "Plasmodium falciparum Dd2 asexual blood stage parasites", "Label": "true (1)"}
{"Compound": "Cc1ccc(N(Cc2cccs2)C(=O)C(C)Oc2ccc(Cl)c(C)c2)cc1 (centres unmarked)", "Subject Of Test": "Plasmodium falciparum Dd2 asexual blood stage parasites", "Label": "false (0)"}

Q: Field: below-cutoff. Rule: recorded AC50 strictly less than 5 µM. Subject: CC(C)CN1C(=O)c2ccccc2C(C(=O)Nc2nccs2)C12CCCC2 (centres unmarked)
Ans: false (0)

Q: Hi there! Is AC50 for COc1cccc(-c2cc(C(=O)Nc3ccncc3)c3ccccc3n2)c1 below 5 µM, do you know?
Ans: false (0)

Q: Is 5 µM strictly greater than the compound's reported AC50? compound: CC[C@H]1C[N@@]2CC[C@H]1C[C@@H]2CNCc1ccc(SC)cc1
Ans: true (1)

---

System: Plasmodium falciparum Dd2 asexual blood stage parasites
Protocol Summary: microbe, parasite or virus in culture
Set-up: species or system Plasmodium falciparum Dd2 in human erythrocytes; single determination (one 11-point concentration-response curve)
Study Conditions: Plasmodium falciparum, DD2, Erythrocyte, 72 h
Quick list: AC50 per entry.
Report only the number, with the unit µM understood.

{"Molecule": "O=C(CN(C(=O)c1cccc([N+](=O)[O-])c1)C1CCCCC1)Nc1ccc(Cl)c([N+](=O)[O-])c1", "AC50 [µM]": 13.3}
{"Molecule": "O=C(c1ccco1)c1cn(CCOc2ccc(F)cc2)c2ccccc12", "AC50 [µM]": 6.68}

Q: Lab note: need AC50 with Plasmodium falciparum Dd2 asexual blood stage parasites for entry CCc1cccc(-n2c(=O)c3cccnc3n2CC(=O)NCc2ccc(C)cc2)c1 , please look it up.
Ans: 1.68

Q: Notebook entry, Plasmodium falciparum Dd2 asexual blood stage parasites assay: AC50 of CCN1CCN(Cc2ccc(NC(=O)c3ccc(C)c(NC(=O)C4=NN(c5ccccc5)C(=O)C4)c3)cc2C(F)(F)F)CC1 = ?
Ans: 8.41

---

Form field: viability at 48 h, 1 µM (one value per entry).
Protocol Summary: in vitro
Study Conditions: human, HepG2-A16-CD81EGFP cells, uninfected
Quick note: give the figure in %, leave out the unit.

Sample answers from the record:
{"Compound": "C=C(C)CSc1nc2sc3c(c2c(=O)n1C1CCCCC1)CCN(C)C3 [MLS000779440-01]", "Units": "%", "viability at 48 h, 1 µM": 98}
{"Compound": "CN(C)CCCNc1cc(N2CCN(C3CCCCC3)CC2)c2noc3c2c1C(=O)c1ccccc1-3 [NCGC00111069-01]", "Units": "%", "viability at 48 h, 1 µM": 96.3}
{"Compound": "OC(CNCCNc1ncccc1C(F)(F)F)Cn1ccc2ccccc21 (stereo not shown) [MLS000833573-01]", "Units": "%", "viability at 48 h, 1 µM": 106}

Q: Which measured viability at 48 h, 1 µM value corresponds to Oc1ccc(C2NCc3ccccc3-n3cccc32)cc1Cl (stereo not shown) [MLS000047999-01] ?
Ans: 99

Q: Fill in the blank: the reported viability at 48 h, 1 µM of COc1cc(O)c(C(CCN2CCCC(C)C2)c2cc(OC)c(OC)c(OC)c2)c(OC)c1 (stereo not shown) [MLS000879467-01] is ____.
Ans: 90

Q: Find the recorded viability at 48 h, 1 µM belonging to N#Cc1cc(C(=O)c2cc(Br)ccc2O)cn(C2CCCCC2)c1=O [MLS000565115-01] and report it.
Ans: 90

Q: Param item = O=C1c2ccccc2C2=Nc3ccccc3SC(c3ccccc3F)C12 (stereo not shown) [MLS000562246-01] ; retrieve measured viability at 48 h, 1 µM.
Ans: 99

Q: Please give the measured viability at 48 h, 1 µM for this compound: COc1cc(O)c(C(CCN2CCN(c3ccccc3)CC2)c2ccc3c(c2)OCO3)c(OC)c1 (stereo not shown) [MLS000879526-01]
Ans: 117

---

Tested on: P. berghei-ANKA-GFP-LucCON liver stage parasites in HepG2-A16-CD81EGFP cells
Protocol Summary: P. berghei liver stage Pb-Luc assay, Method 1 (UCSD, 1536-well)
Format: cell-based, Plasmodium berghei
Study Conditions: Plasmodium berghei, 48 h, 1 uM (compounds provided at 10 mM); average of 2 wells on a 1536 well plate; column 12; read-out: Pb-Luc (P. berghei liver stage), % of control, lower concentration, second repeat
Recorded Endpoint: activity at 1 µM (%)
Numbers only; they are read as %.

{"Smiles Representation": "CCNc1nc(OC)nc(Oc2ccc(=O)n(-c3ccccc3)n2)n1", "Subject Of Test": "P. berghei-ANKA-GFP-LucCON liver stage parasites in HepG2-A16-CD81EGFP cells", "Units": "%", "activity at 1 µM": 109}
{"Smiles Representation": "CCCSc1ccc([C@H]2N[C@@](Cc3ccccc3)(C(=O)OC)[C@H]3C(=O)N(CC)C(=O)[C@@H]23)cc1", "Subject Of Test": "P. berghei-ANKA-GFP-LucCON liver stage parasites in HepG2-A16-CD81EGFP cells", "Units": "%", "activity at 1 µM": 102}
{"Smiles Representation": "CC(C)(C)CC(C)(C)c1ccc(O)c(CN2CCN(CCC#N)CC2)c1", "Subject Of Test": "P. berghei-ANKA-GFP-LucCON liver stage parasites in HepG2-A16-CD81EGFP cells", "Units": "%", "activity at 1 µM": 117}
{"Smiles Representation": "CC(C)COc1ccc(C(=O)N/C(=C\\c2cccc([N+](=O)[O-])c2)C(=O)OC(C)C)cc1", "Subject Of Test": "P. berghei-ANKA-GFP-LucCON liver stage parasites in HepG2-A16-CD81EGFP cells", "Units": "%", "activity at 1 µM": 84}
{"Smiles Representation": "Cc1nc2c(n1C1CCCCC1)C(=O)c1ccccc1C2=O", "Subject Of Test": "P. berghei-ANKA-GFP-LucCON liver stage parasites in HepG2-A16-CD81EGFP cells", "Units": "%", "activity at 1 µM": 107}

Q: Any idea what its activity at 1 µM is? The compound is CC(C)CN(Cc1cc(=O)oc2cc(-c3ccccc3)c(O)cc12)CC(C)C
Ans: 88

Q: Item under review: CCOC(=O)c1ccc(N=C(S)N2CCN(CCNC3=CC(=O)CC(C)(C)C3)CC2)cc1 . Reported activity at 1 µM?
Ans: 96

Q: Given Oc1cc(Cc2ccccc2)cnc1CN1CCCCC1 , state its recorded activity at 1 µM.
Ans: 110
